Each recorded value in this set is attributed to ChEMBL document CHEMBL1140808.

System: T47D
testName: Antiproliferative activity against human T47D cells after 72 hrs by SRB assay
Assay type: functional, cell-based
testConditions: Homo sapiens, T47D, 72 h
pIC50: −log10 of the molar value.
measurementKind: pIC50

Worked examples, 2 molecules total:
> print(dat)
                                inputsmiles  targetentity  reported
1  C/C=C(\C)C(=O)O[C@H]1c2cc(OC)c(OC)c(OC)c2-c2c(cc3c(c2O)OCO3)C[C@H](C)[C@]1(C)O          T47D      4.58
2  COc1cc2c(c(OC)c1OC)-c1c(cc3c(c1OC)OCO3)C[C@H](C)[C@](C)(O)[C@H]2OC(=O)c1ccccc1          T47D      4.29

[a] COc1cc2c(c(OC)c1OC)-c1c(cc(OC)c(OC)c1OC)C[C@H](C)[C@H](C)C2
[b] COc1cccc2c1C(=O)c1c(O)c3c(c(O)c1C2=O)C[C@@](O)(C(=O)CO)C[C@@H]3O[C@H]1C[C@H](N)[C@H](O)[C@H](C)O1
[c] COc1cc2c(c(OC)c1OC)-c1c(cc(OC)c(OC)c1OC)C[C@](C)(O)[C@@H](C)C2
Arrange these 3 molecules in increasing order of pIC50. Write out the labels following the order that was asked for. a, c, b
(a: 4.40, c: 4.70, b: 7.00)
